Origin of the recorded values: BigSolDB 2.1

# settings: in n-butanol, 293.15 K
metricName: solubility (mole fraction)
Note: the reply should be a number with no unit written.

Value lookup for solubility (mole fraction); key = `CC1=C(C(=O)O)N2C(=O)[C@@H](NC(=O)[C@H](N)C3=CCC=CC3)[C@H]2SC1`
0.000405

* * *

# settings: in water, 283.15 K
metricName: solubility (mole fraction)
No unit in the answer, please; the number alone is enough.

Fill blank: measured solubility (mole fraction) of the compound `CC1=C(C(=O)O)N2C(=O)[C@@H](NC(=O)[C@H](N)C3=CCC=CC3)[C@H]2SC1` is ____.
0.00114

* * *

# settings: in ethanol, 288.15 K
metricName: solubility (mole fraction)
When you answer, write just the number.

Reported solubility (mole fraction), molecule `CC1=C(C(=O)O)N2C(=O)[C@@H](NC(=O)[C@H](N)C3=CCC=CC3)[C@H]2SC1` : ____
0.000217
